Below, each entry is listed with its recorded pIC50.
- System: human liver epithelial cells (L-02)
- assay summary: Antiproliferative activity against normal cells, L-02
- Assay type: cell-based
- conditions: Epithelial cell, read-out: Antiproliferative IC50 L-02
pIC50: −log10 of the molar value.

> print(dat)
                                   compound  result
1  COCCCOc1ccc2c(OCCCCCCCC(=O)NO)cc(=O)oc2c1 [Compound 13d]  < 4.70
2  COCCOc1ccc2c(OCCCCCCCC(=O)NO)cc(=O)oc2c1 [Compound 13c]  < 4.00
3  CCCOc1ccc2c(OCCCCCCCC(=O)NO)cc(=O)oc2c1 [Compound 13a]  < 4.30

Would you kindly look at the next entry?
Provide the documented pIC50 with human liver epithelial cells (L-02) as the system for CCCCOc1ccc2c(OCCCCCCCC(=O)NO)cc(=O)oc2c1 [Compound 13b]
< 4.70

---

- Test system: MCF-7
- assay summary: SRB antiproliferative assay, MCF-7
- Format: cell-based
- conditions: Homo sapiens, MCF7, 48 h, read-out: IC50 MCF-7
measured attribute: pIC50
Just so you know, pIC50 here is -log10 of the concentration in molar units; reply with that number alone.

Here's what some known entries look like.
> print(dat)
                                   compound  target.desc  quantitative.readout
1  COCCCOc1ccc2c(OCCCCCCCC(=O)NO)cc(=O)oc2c1 [Compound 13d]        MCF-7                  5.28
2  CCCCOc1ccc2c(OCCCCCCCC(=O)NO)cc(=O)oc2c1 [Compound 13b]        MCF-7                  5.53

Here's the next entry for you.
Given the entry O=C(CCCCCCCOc1cc(=O)oc2cc(OCc3c(F)cccc3F)ccc12)NO [Compound 14m] , report its measured pIC50.
5.22

---

Here's a batch of molecules along with measured pIC50 for HDAC1 (Homo sapiens).
To interpret pIC50, take it as minus log10 of a concentration measured in moles per litre.

Form entry - test system: HDAC1 (Homo sapiens); read-out: pIC50; molecule: O=C(CCCCCCCOc1cc(=O)oc2cc(OCc3ccccc3[N+](=O)[O-])ccc12)NO [Compound 14b]
Sequence (Q13547 whole entry): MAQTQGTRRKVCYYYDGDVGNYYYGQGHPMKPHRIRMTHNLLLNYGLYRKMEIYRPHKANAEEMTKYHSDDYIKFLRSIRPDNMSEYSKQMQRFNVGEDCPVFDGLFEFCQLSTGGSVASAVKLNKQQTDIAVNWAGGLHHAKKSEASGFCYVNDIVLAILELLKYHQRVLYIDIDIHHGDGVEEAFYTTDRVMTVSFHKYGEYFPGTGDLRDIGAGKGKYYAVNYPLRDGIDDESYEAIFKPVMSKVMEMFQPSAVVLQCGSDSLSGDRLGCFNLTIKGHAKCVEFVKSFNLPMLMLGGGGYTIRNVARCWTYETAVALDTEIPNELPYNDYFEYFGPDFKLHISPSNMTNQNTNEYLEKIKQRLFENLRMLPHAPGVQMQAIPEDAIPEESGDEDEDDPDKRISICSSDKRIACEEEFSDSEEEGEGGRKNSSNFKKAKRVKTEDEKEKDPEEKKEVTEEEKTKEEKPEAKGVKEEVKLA
8.80

Requested read-out pIC50, target or system HDAC1 (Homo sapiens), entry Cc1ccccc1COc1ccc2c(OCCCCCCCC(=O)NO)cc(=O)oc2c1 [Compound 14p]
8.81

pIC50 of O=C(CCCCCCCOc1cc(=O)oc2cc(OCC3CCCCC3)ccc12)NO [Compound 13g] on HDAC1 (Homo sapiens)?
8.30

Give the reported pIC50 for O=C(CCCCCCCOc1cc(=O)oc2cc(OCc3ccc(C(F)(F)F)cc3)ccc12)NO [Compound 14l] (system: HDAC1 (Homo sapiens)).
8.26

What is its pIC50 for HDAC1 (Homo sapiens)? Entry: O=C(CCCCCCCOc1cc(=O)oc2cc(OCc3ccc(F)cc3Cl)ccc12)NO [Compound 14o]
8.49

Short answer please: pIC50, HDAC1 (Homo sapiens), entry O=C(CCCCCCCOc1cc(=O)oc2cc(OCc3ccc([N+](=O)[O-])cc3)ccc12)NO [Compound 14d]
8.76

Look up pIC50 with HDAC1 (Homo sapiens) for this molecule: O=C(CCCCCCCOc1cc(=O)oc2cc(OCc3cccc([N+](=O)[O-])c3)ccc12)NO [Compound 14c]
8.71

Request body: readout pIC50, system HDAC1 (Homo sapiens), query O=C(CCCCCCCOc1cc(=O)oc2cc(OCc3cccc(Cl)c3)ccc12)NO [Compound 14i] . Return the value.
8.37

Find pIC50 (HDAC1 (Homo sapiens)) for the entry Cc1cccc(C)c1COc1ccc2c(OCCCCCCCC(=O)NO)cc(=O)oc2c1 [Compound 14s]
8.28

What pIC50 appears in the records for this molecule with HDAC1 (Homo sapiens)? Cc1cccc(COc2ccc3c(OCCCCCCCC(=O)NO)cc(=O)oc3c2)c1 [Compound 14q]
8.53

HDAC1 (Homo sapiens) / pIC50 / O=C(CCCCCCCOc1cc(=O)oc2cc(OCc3ccc(Cl)cc3)ccc12)NO [Compound 14j] : value?
8.60

Provide value of pIC50 for this record tested with HDAC1 (Homo sapiens): Cc1ccc(COc2ccc3c(OCCCCCCCC(=O)NO)cc(=O)oc3c2)cc1 [Compound 14r]
8.60

Record O=C(CCCCCCCOc1cc(=O)oc2cc(OCc3ccc(Br)cc3)ccc12)NO [Compound 14k] : what is its pIC50 with HDAC1 (Homo sapiens)?
8.52

Lab note: need pIC50 for O=C(CCCCCCCOc1cc(=O)oc2cc(OCc3ccccc3Cl)ccc12)NO [Compound 14h] on HDAC1 (Homo sapiens), anyone have it?
8.62

---

- System: MDA-MB-231
- assay summary: SRB antiproliferative assay, MDA-MB-231
- Assay type: cell-based
- conditions: Homo sapiens, MDA-MB-231, 48 h, read-out: IC50 MDA-MB-231
Collected IC50 values appear next to each entry.

> print(dat)
                                   molecule   result
1  COCCCOc1ccc2c(OCCCCCCCC(=O)NO)cc(=O)oc2c1 [Compound 13d]  1700 nM
2  CCCCOc1ccc2c(OCCCCCCCC(=O)NO)cc(=O)oc2c1 [Compound 13b]  1970 nM

Now examine the next entry.
I would be grateful if you could share the reported IC50 for O=C(CCCCCCCOc1cc(=O)oc2cc(OCc3c(F)cccc3F)ccc12)NO [Compound 14m] .
1950 nM
